Test system: SK-OV-3 ovarian
Assay: NCI tumour cell line growth inhibition, 48 h
Measured GI50 values are reported for all entries that follow.

// known answers, use as guide
COc1ccc(-c2nnc(N3CCN(C(=O)CN4CCN(c5ccc(OC)cc5)CC4)CC3)nc2-c2ccc(OC)cc2)cc1
20.8 µM
O=C(/C=C/c1ccccc1)CC(c1ccccc1)N1CCOCC1 (configuration not stated)
14.4 µM
COCCOCCOCc1n(Cc2ccc3ccccc3n2)c2ccccc2[n+]1Cc1ccc2ccccc2c1
0.501 µM
COc1cc2c(cc1-c1c(C)noc1C)cc(C)c(=O)n2Cc1ccccn1
0.554 µM
O=C1c2cccnc2-c2nc(-c3ccncc3)cc3c2c1nc1ccccc13
> 100 µM
CN(C)Cc1c[nH]c2c(NCCN)c3c(c(NCCN)c12)C(=O)c1ccccc1C3=O
8.67 µM
C=C(CN1CCc2ccccc2C1)c1ccc(C(=O)Nc2ccccc2N)cc1
1.08 µM
CC1(C)CC[C@H](C2=CC(=O)c3c(O)ccc(O)c3C2=O)O1
4.81 µM

Inquiry: Form: Entry = C[C@H](Cn1ncnn1)Nc1ncc2cc(Oc3ccc(F)cc3F)c(=O)n(C)c2n1 | System = SK-OV-3 ovarian | GI50 = ____
Reply text: > 25 µM

Inquiry: Form: Entry = COc1ccc(/C=C2/CCc3cc4ccc(OC)cc4[o+]c32)c(O)c1 | System = SK-OV-3 ovarian | GI50 = ____
Reply text: 12.3 µM

Inquiry: Form: Entry = COc1ccccc1/C=C/C(=O)/C=C/c1ccccc1O | System = SK-OV-3 ovarian | GI50 = ____
Reply text: 2.05 µM

Inquiry: Form: Entry = O=c1c2c3c(sc2n2c(-c4cc(-c5ccccc5)nn4-c4ccccc4)nnc2n1Cc1ccccc1)CCCC3 | System = SK-OV-3 ovarian | GI50 = ____
Reply text: > 100 µM

---

Tested on: HT29 colon
Assay: NCI tumour cell line growth inhibition, 48 h
Measured TGI values are reported for all entries that follow.

Inquiry: Report TGI for CC1(c2ccccc2)CC(c2ccccc2)=NO1 (stereo unspecified) please.
Reply text: > 100 µM

Inquiry: Report TGI for CCSc1nc(N)c2cn[nH]c2n1 please.
Reply text: 81.9 µM

Inquiry: Report TGI for CC1CC[C@@]2(OC1)OC1C[C@H]3[C@@H]4CC[C@H]5CC(OC6OC(CO)C(OC7OC(CO)C(O)C(O)C7OC7OC(CO)C(O)C(O)C7O)C(O)C6O)CCC5(C)[C@H]4CCC3(C)C1[C@@H]2C (stereo partly specified) please.
Reply text: 1.86 µM

Inquiry: Report TGI for CCCn1c(CN(Cc2nc3ccccc3n2CCC)Cc2nc3ccccc3n2CCC)nc2ccccc21 please.
Reply text: > 41.1 µM

Inquiry: Report TGI for CCOC(=N)n1c(=O)n(C2=NCCN2)c2ccccc21 please.
Reply text: > 100 µM

Inquiry: Report TGI for COc1ccc(C2(CC(C)O)SCCCS2)cc1 (stereo unspecified) please.
Reply text: > 100 µM

---

Tested on: ACHN renal
Experiment: NCI tumour cell line growth inhibition, 48 h
Measured TGI values are reported for all entries that follow.

CCCCCCCCCCCCCC(=O)OCC1OC(=O)CC1O (stereo not given)
> 100 µM
CN(C)Cc1cc(C(=O)/C=C/c2ccc(O)cc2)cc(CN(C)C)c1O
53.3 µM
COc1cc([N+](=O)[O-])c(OC)cc1-c1nc2sc(Cl)cn2c1/C=N/Nc1ccccn1
16.9 µM

Inquiry: Report TGI for CCOc1cc(C2CC(c3ccc(NS(=O)(=O)c4cc([N+](=O)[O-])ccc4C)cc3)=NN2C(=O)c2ccccc2)ccc1O (stereo not given) please.
Reply text: 85.3 µM

Inquiry: Report TGI for Cc1cc2c(Br)cc(Br)c(O)c2nc1C(=O)c1ccccc1 please.
Reply text: > 100 µM

---

Test system: HS 578T breast
Test: NCI tumour cell line growth inhibition, 48 h
MEASURED PARAMETER: GI50

// known answers, use as guide
O=C1C(Cl)=C(Nc2ccccc2)C(=O)c2ccccc21
3050 nM
COc1ccc(-c2nnc(N3CCN(C(=O)CN4CCN(c5ccc(OC)cc5)CC4)CC3)nc2-c2ccc(OC)cc2)cc1
2840 nM
C[C@H](Cn1ncnn1)Nc1ncc2cc(Oc3ccc(F)cc3F)c(=O)n(C)c2n1
> 25000 nM
Cn1c([N+](=O)[O-])cnc1/C=C1\Oc2cc(Cl)ccc2C1=O
1690 nM

Inquiry: Report GI50 for COc1ccccc1/C=C/C(=O)/C=C/c1ccccc1O please.
Reply text: 2250 nM

---

Tested on: OVCAR-5 ovarian
Assay: NCI tumour cell line growth inhibition, 48 h
Measured TGI values are reported for all entries that follow.
Report the value in µM with no unit label.

C=C1CC2(OC1=O)C(=O)N(CCCN1C(=O)C3(CC(=C)C(=O)O3)c3ccccc31)c1ccccc12 (stereo not given)
4.55

Inquiry: Report TGI for COc1ccc(/C=C2/CCc3cc4ccc(OC)cc4[o+]c32)c(O)c1 please.
Reply text: 40.3

---

Measured TGI values are reported for all entries that follow.
Test system: RXF 393 renal
Experiment: NCI tumour cell line growth inhibition, 48 h
Report the value in µM with no unit label.

COc1ccc2nc3cc(Cl)ccc3c(NCCCNCCCNc3c4ccc(Cl)cc4nc4ccc(OC)cc34)c2c1
0.453

Inquiry: Form: Entry = C=C1CC2(OC1=O)C(=O)N(CCCN1C(=O)C3(CC(=C)C(=O)O3)c3ccccc31)c1ccccc12 (stereo not given) | System = RXF 393 renal | TGI = ____
Reply text: 2.83

Inquiry: Form: Entry = CCOC(=O)c1ccc(N[C@@H]2c3cc4c(cc3C(C3=CC(=O)C(=O)C(OC)=C3)[C@H]3C(=O)OCC32)OCO4)cc1 (stereo not given in full) | System = RXF 393 renal | TGI = ____
Reply text: 16.8

Inquiry: Form: Entry = O=C(CNc1ccccc1Cl)Nn1c(-c2ccccc2)nc2ccccc2c1=O | System = RXF 393 renal | TGI = ____
Reply text: 36.7

---

Measured TGI values are reported for all entries that follow.
System: SR leukemia
Assay: NCI tumour cell line growth inhibition, 48 h
Report the value in µM with no unit label.

// known answers, use as guide
CC(C)c1ccc(C(=O)Nc2sc3c(CN(C)C)c(O)ccc3c2C(N)=O)cc1
8.79
COc1ccc(/C=C2/CCc3cc4ccc(OC)cc4[o+]c32)c(O)c1
45.6
O=c1c(Cl)c(Cl)cnn1CCc1ccncc1
57.2

Inquiry: Form: Entry = O=C(c1ccc2ccccc2c1)c1c(C(F)(F)F)n([O-])c2ccc(Cl)cc2[n+]1=O | System = SR leukemia | TGI = ____
Reply text: 1.34

Inquiry: Form: Entry = Cn1c([N+](=O)[O-])cnc1/C=C1\Oc2cc(Cl)ccc2C1=O | System = SR leukemia | TGI = ____
Reply text: 0.344

---

System: LOX IMVI melanoma
Experiment: NCI tumour cell line growth inhibition, 48 h
Where a SMILES comes first, the peptide text is derived from it. The star is where a group is joined. Boc = CC(C)(C)OC(=O)*
Measured TGI values are reported for all entries that follow.

// known answers, use as guide
O=C1C=CC(=O)N1Nc1ccc([N+](=O)[O-])cc1[N+](=O)[O-]
> 100 µM
N=S(c1ccccc1)c1ccccc1[N+](=O)[O-] (stereo not drawn)
28.2 µM
CSc1cc(Cl)c(C)cc1S(=O)(=O)NC(=O)NNc1ccc(Cl)cc1
> 100 µM
O=C(c1ccc2ccccc2c1)c1c(C(F)(F)F)n([O-])c2ccc(Cl)cc2[n+]1=O
0.375 µM

Inquiry: Report TGI for OC(CN1CC1)C(O)CN1CC1 (stereo not drawn) please.
Reply text: > 50 µg/mL

Inquiry: Report TGI for CNC(=O)c1cc2c(Oc3ccc(NC(=O)C4(C(=O)Nc5ccc(F)cc5)CC4)cc3)ccnc2cc1OC please.
Reply text: 8.93 µM

Inquiry: Report TGI for CN(C)Cc1cc(C(=O)/C=C/c2ccc(O)cc2)cc(CN(C)C)c1O please.
Reply text: > 100 µM

Inquiry: Report TGI for CCCCCCCCCCCCCC(=O)OCC1OC(=O)CC1O (stereo not drawn) please.
Reply text: > 100 µM

Inquiry: Report TGI for CC(C)(C)OC(=O)NCC(=O)NCC(=O)NCC(=O)NCC(=O)O (Boc-GGGG-OH) please.
Reply text: > 100 µM

Inquiry: Report TGI for Cc1c(S(=O)(=O)/N=C(\N)Nc2ccc(Cl)cc2)sc2ccc(Cl)cc12 please.
Reply text: 36.3 µM

Inquiry: Report TGI for Cc1ccc2c(c1)Sc1ccc(N=NN(C)C)cc1N2C please.
Reply text: > 100 µM

Inquiry: Report TGI for CC1CCCc2c1nn(C(=O)/C=C(\N)c1ccccc1)c2N (stereo not drawn) please.
Reply text: > 100 µM

---

System: MOLT-4 leukemia
Test: NCI tumour cell line growth inhibition, 48 h
MEASURED PARAMETER: TGI

O=c1oc(-c2ccc(O)c(O)c2)cc2cccc(O)c12
52 µM
C=CCOC(=O)CC[N+]1=CCC(c2ccccc2)(c2ccccc2)O1
> 100 µM
COc1ccccc1-c1cc(=O)c2ccc(C)nc2[nH]1
> 100 µM

Inquiry: Form: Entry = CCCCC1c2c([nH]c3ccccc23)C2C(=O)N(c3ccc(OC)cc3)C(=O)C2C1CCC (stereo not given) | System = MOLT-4 leukemia | TGI = ____
Reply text: 7.97 µM

Inquiry: Form: Entry = CCOC(=O)c1c(-c2ccc(OC)cc2)c(C#N)c(=S)n(C2OC(COC(C)=O)C(OC(C)=O)C(OC(C)=O)C2OC(C)=O)c1C (stereo not given) | System = MOLT-4 leukemia | TGI = ____
Reply text: > 100 µM

Inquiry: Form: Entry = O=C1C(SCCO)=C(SCCO)C(=O)c2ccccc21 | System = MOLT-4 leukemia | TGI = ____
Reply text: 0.481 µM

Inquiry: Form: Entry = C=C1CC2(OC1=O)C(=O)N(CCCN1C(=O)C3(CC(=C)C(=O)O3)c3ccccc31)c1ccccc12 (stereo not given) | System = MOLT-4 leukemia | TGI = ____
Reply text: 1.93 µM

Inquiry: Form: Entry = COc1ccc2cc3c4cc5c(cc4cc[n+]3cc2c1OC)OCO5 | System = MOLT-4 leukemia | TGI = ____
Reply text: > 100 µM

Inquiry: Form: Entry = CNC(SC)=C1C(=O)OC(C)(C)OC1=O | System = MOLT-4 leukemia | TGI = ____
Reply text: > 100 µM

Inquiry: Form: Entry = C=C(CN1CCc2ccccc2C1)c1ccc(C(=O)Nc2ccccc2N)cc1 | System = MOLT-4 leukemia | TGI = ____
Reply text: 2.03 µM

Inquiry: Form: Entry = O=S(=O)(O)c1cc2ccc1/C=C\c1ccc(cc1S(=O)(=O)O)N=Nc1ccc(c(S(=O)(=O)O)c1)/C=C\c1ccc(cc1S(=O)(=O)O)N=N2 | System = MOLT-4 leukemia | TGI = ____
Reply text: > 100 µM

Inquiry: Form: Entry = COc1c(Br)cc(Br)c(OC)c1-c1[nH]c(Br)c(Br)c1Br | System = MOLT-4 leukemia | TGI = ____
Reply text: 21.8 µM

Inquiry: Form: Entry = NC(N)=NS(=O)(=O)c1ccc(NC(=O)c2cccc3c(Nc4ccc(S(N)(=O)=O)cc4)c4ccccc4nc23)cc1 | System = MOLT-4 leukemia | TGI = ____
Reply text: > 100 µM

Inquiry: Form: Entry = c1ccc(Cn2cnc3ccc(-c4nc(-c5ccc6c(c5)ncn6C5CCCCC5)cn5ccnc45)cc32)cc1 | System = MOLT-4 leukemia | TGI = ____
Reply text: > 100 µM

Inquiry: Form: Entry = COc1ccc2nc3cc(Cl)ccc3c(NCCCNCCCNc3c4ccc(Cl)cc4nc4ccc(OC)cc34)c2c1 | System = MOLT-4 leukemia | TGI = ____
Reply text: > 100 µM

Inquiry: Form: Entry = CCOC(=O)/C=C(\C)c1ccc(C)cc1C | System = MOLT-4 leukemia | TGI = ____
Reply text: > 100 µM

Inquiry: Form: Entry = CN(C)Cc1c[nH]c2c(NCCN)c3c(c(NCCN)c12)C(=O)c1ccccc1C3=O | System = MOLT-4 leukemia | TGI = ____
Reply text: > 35.7 µM

Inquiry: Form: Entry = CC/C(=N\NS(=O)(=O)c1ccccc1)c1ccccc1 | System = MOLT-4 leukemia | TGI = ____
Reply text: > 100 µM

Inquiry: Form: Entry = CC(C)(C)NC(=O)/C(=C\Sc1ccccc1)c1ccc2c(c1)OCO2 | System = MOLT-4 leukemia | TGI = ____
Reply text: > 100 µM

Inquiry: Form: Entry = Cc1nn(C(=O)Cc2ccccc2)c2c1C(c1ccc(O)cc1)SC(N)=N2 (stereo not given) | System = MOLT-4 leukemia | TGI = ____
Reply text: > 100 µM

Inquiry: Form: Entry = CC(C)c1ccc(C(=O)Nc2sc3c(CN(C)C)c(O)ccc3c2C(N)=O)cc1 | System = MOLT-4 leukemia | TGI = ____
Reply text: 8.51 µM

Inquiry: Form: Entry = N=S(c1ccccc1)c1ccccc1[N+](=O)[O-] (stereo not given) | System = MOLT-4 leukemia | TGI = ____
Reply text: 64.3 µM

Inquiry: Form: Entry = O=C(CCCN1CCC2(CC1)CC(=O)N(N1CCOCC1)C2=O)c1ccccc1 | System = MOLT-4 leukemia | TGI = ____
Reply text: > 100 µM

Inquiry: Form: Entry = Cc1csc(-c2cn(C)c3c2C(=O)C(N)=CC3=O)n1 | System = MOLT-4 leukemia | TGI = ____
Reply text: > 27.9 µM

Inquiry: Form: Entry = O=c1c2cc3c(cc2[nH]c2ncccc12)OCO3 | System = MOLT-4 leukemia | TGI = ____
Reply text: > 10 µM

Inquiry: Form: Entry = C1=CC2=CC=CC3c4nc5ccc6ccccc6c5nc4C(=C1)C23 (stereo not given) | System = MOLT-4 leukemia | TGI = ____
Reply text: > 100 µM

Inquiry: Form: Entry = O=C1C=C(O)c2[nH]c(=O)ccc2C1=O | System = MOLT-4 leukemia | TGI = ____
Reply text: > 100 µM

Just for reference, PubChem BioAssay (NCI) is where these values come from.
